system: LOU-NH91; test: relative viability (nuclei count vs DMSO), 5 days (fraction); higher = more cells survive; conditions: first compound 0.04 µM
Measured metric: relative viability

{"columns": ["Compound", "Test result"],
 "data": [
  ["C[C@@H]1CN(CC(=O)Nc2ccc3c(c2)Cc2cccc(-c4cc(=O)cc(N5CCOCC5)o4)c2S3)C[C@H](C)O1 + CS(=O)(=O)N1CCN(Cc2cc3nc(-c4cccc5[nH]ncc45)nc(N4CCOCC4)c3s2)CC1 [Pictilisib] (partner 1 µM)", 0.554],
  ["C[C@@H]1CN(CC(=O)Nc2ccc3c(c2)Cc2cccc(-c4cc(=O)cc(N5CCOCC5)o4)c2S3)C[C@H](C)O1 + CC1(C)CCC(c2ccc(Cl)cc2)=C(CN2CCN(c3ccc(C(=O)NS(=O)(=O)c4ccc(N[C@H](CCN5CCOCC5)CSc5ccccc5)c(S(=O)(=O)C(F)(F)F)c4)cc3)CC2)C1 [Navitoclax] (partner 0.5 µM)", 0.701]
]}

---

system: NCI-H1651; assay: relative viability (nuclei count vs DMSO), 5 days (fraction); higher = more cells survive; conditions: first compound 0.1265 µM
Measured metric: relative viability

{"columns": ["Molecule", "Measured metric", "Test result"],
 "data": [
  ["COc1cc(N2CCC(C(N)=O)CC2)ccc1Nc1nc(N)c(Cl)c(Nc2ccccc2S(=O)(=O)C(C)C)n1 [HG-5-88-01] + O=C(c1cc(Cc2n[nH]c(=O)c3ccccc23)ccc1F)N1CCN(C(=O)C2CC2)CC1 [Olaparib] (partner 8 µM)", "relative viability", 0.199],
  ["Clc1ccc(Nc2nnc(Cc3ccncc3)c3ccccc23)cc1 [Vatalanib] + Nc1ncn([C@H]2C[C@H](O)[C@@H](CO)O2)c(=O)n1 [Decitabine] (partner 2 µM)", "relative viability", 0.59],
  ["C[C@@H]1CN(CC(=O)Nc2ccc3c(c2)Cc2cccc(-c4cc(=O)cc(N5CCOCC5)o4)c2S3)C[C@H](C)O1 + CC(=O)Nc1cccc(-n2c(=O)n(C3CC3)c(=O)c3c(Nc4ccc(I)cc4F)n(C)c(=O)c(C)c32)c1 [Trametinib] (partner 0.02 µM)", "relative viability", 0.894],
  ["C[C@@H]1CN(CC(=O)Nc2ccc3c(c2)Cc2cccc(-c4cc(=O)cc(N5CCOCC5)o4)c2S3)C[C@H](C)O1 + N=C(N)NC(=N)NCCc1ccccc1 [Phenformin] (partner 250 µM)", "relative viability", 0.321]
]}

---

system: LU99A; assay: relative viability (nuclei count vs DMSO), 5 days (fraction); higher = more cells survive; details: first compound 0.03162 µM
Hi! Just check whether relative viability is below 0.6. Below gives 1 (yes), equal or above gives 0 (no).

{"columns": ["Compound", "System under test", "Category label"],
 "data": [
  ["CC(C)Oc1cc(Nc2nc(N[C@@H](C)c3ccc(F)cn3)ncc2Cl)n[nH]1 [AZ23] + COc1cccc2cc(-c3nc([C@H]4CC[C@H](C(=O)O)CC4)n4ncnc(N)c34)[nH]c12 [OSI-027] (partner 0.5 µM)", "LU99A", "1 (yes)"],
  ["CC(C)Oc1cc(Nc2nc(N[C@@H](C)c3ccc(F)cn3)ncc2Cl)n[nH]1 [AZ23] + Nc1ncn([C@H]2C[C@H](O)[C@@H](CO)O2)c(=O)n1 [Decitabine] (partner 2 µM)", "LU99A", "0 (no)"],
  ["CC(C)Oc1cc(Nc2nc(N[C@@H](C)c3ccc(F)cn3)ncc2Cl)n[nH]1 [AZ23] + CC1(C)CCC(c2ccc(Cl)cc2)=C(CN2CCN(c3ccc(C(=O)NS(=O)(=O)c4ccc(N[C@H](CCN5CCOCC5)CSc5ccccc5)c(S(=O)(=O)C(F)(F)F)c4)cc3)CC2)C1 [Navitoclax] (partner 0.5 µM)", "LU99A", "0 (no)"],
  ["CC(C)Oc1cc(Nc2nc(N[C@@H](C)c3ccc(F)cn3)ncc2Cl)n[nH]1 [AZ23] + CC(C)C[C@H](NC(=O)[C@H](Cc1ccccc1)NC(=O)c1cnccn1)B(O)O [Bortezomib] (partner 0.002 µM)", "LU99A", "0 (no)"],
  ["CC(C)Oc1cc(Nc2nc(N[C@@H](C)c3ccc(F)cn3)ncc2Cl)n[nH]1 [AZ23] + Nc1nc2[nH]cc(CCc3ccc(C(=O)N[C@@H](CCC(=O)O)C(=O)O)cc3)c2c(=O)[nH]1 [Pemetrexed] (partner 0.2 µM)", "LU99A", "1 (yes)"],
  ["CC(C)Oc1cc(Nc2nc(N[C@@H](C)c3ccc(F)cn3)ncc2Cl)n[nH]1 [AZ23] + CCNC(=O)c1noc(-c2cc(C(C)C)c(O)cc2O)c1-c1ccc(CN2CCOCC2)cc1 [Luminespib] (partner 0.01 µM)", "LU99A", "1 (yes)"],
  ["CC(C)Oc1cc(Nc2nc(N[C@@H](C)c3ccc(F)cn3)ncc2Cl)n[nH]1 [AZ23] + N=C(N)NC(=N)NCCc1ccccc1 [Phenformin] (partner 250 µM)", "LU99A", "0 (no)"]
]}

---

test system: LK-2; experiment: relative viability (nuclei count vs DMSO), 5 days (fraction); higher = more cells survive; conditions: first compound 0.1265 µM
Hi! Just check whether relative viability is below 0.4. Below gives true, equal or above gives false.

{"columns": ["Compound", "System under test", "Category label"],
 "data": [
  ["Clc1ccc(Nc2nnc(Cc3ccncc3)c3ccccc23)cc1 [Vatalanib] + COc1cccc2cc(-c3nc([C@H]4CC[C@H](C(=O)O)CC4)n4ncnc(N)c34)[nH]c12 [OSI-027] (partner 0.5 µM)", "LK-2", "true"],
  ["C[C@@H]1CN(CC(=O)Nc2ccc3c(c2)Cc2cccc(-c4cc(=O)cc(N5CCOCC5)o4)c2S3)C[C@H](C)O1 + Cc1nc(NC(=O)N2CCC[C@H]2C(N)=O)sc1-c1ccnc(C(C)(C)C(F)(F)F)c1 [Alpelisib] (partner 2 µM)", "LK-2", "false"],
  ["COc1cc(N2CCC(C(N)=O)CC2)ccc1Nc1nc(N)c(Cl)c(Nc2ccccc2S(=O)(=O)C(C)C)n1 [HG-5-88-01] + Cc1nc(Nc2ncc(C(=O)Nc3c(C)cccc3Cl)s2)cc(N2CCN(CCO)CC2)n1 [Dasatinib] (partner 0.075 µM)", "LK-2", "true"],
  ["COc1cc(N2CCC(C(N)=O)CC2)ccc1Nc1nc(N)c(Cl)c(Nc2ccccc2S(=O)(=O)C(C)C)n1 [HG-5-88-01] + C[C@@H](Oc1cc(-c2cnn(C3CCNCC3)c2)cnc1N)c1c(Cl)ccc(F)c1Cl [Crizotinib] (partner 1 µM)", "LK-2", "true"],
  ["COc1cc(N2CCC(C(N)=O)CC2)ccc1Nc1nc(N)c(Cl)c(Nc2ccccc2S(=O)(=O)C(C)C)n1 [HG-5-88-01] + COc1cc2c(Oc3ccc(NC(=O)C4(C(=O)Nc5ccc(F)cc5)CC4)cc3F)ccnc2cc1OCCCN1CCOCC1 [Foretinib] (partner 0.25 µM)", "LK-2", "false"],
  ["C[C@@H]1CN(CC(=O)Nc2ccc3c(c2)Cc2cccc(-c4cc(=O)cc(N5CCOCC5)o4)c2S3)C[C@H](C)O1 + COc1cc2c(Oc3ccc(NC(=O)C4(C(=O)Nc5ccc(F)cc5)CC4)cc3F)ccnc2cc1OCCCN1CCOCC1 [Foretinib] (partner 0.25 µM)", "LK-2", "false"],
  ["C[C@@H]1CN(CC(=O)Nc2ccc3c(c2)Cc2cccc(-c4cc(=O)cc(N5CCOCC5)o4)c2S3)C[C@H](C)O1 + CC(=O)c1c(C)c2cnc(Nc3ccc(N4CCNCC4)cn3)nc2n(C2CCCC2)c1=O [Palbociclib] (partner 0.5 µM)", "LK-2", "false"]
]}

---

system: NCI-H1993; experiment: relative viability (nuclei count vs DMSO), 5 days (fraction); higher = more cells survive; settings: first compound 0.3162 µM

{"columns": ["Compound", "relative viability"],
 "data": [
  ["CC(C)Oc1cc(Nc2nc(N[C@@H](C)c3ccc(F)cn3)ncc2Cl)n[nH]1 [AZ23] + CC1(C)CCC(c2ccc(Cl)cc2)=C(CN2CCN(c3ccc(C(=O)NS(=O)(=O)c4ccc(N[C@H](CCN5CCOCC5)CSc5ccccc5)c(S(=O)(=O)C(F)(F)F)c4)cc3)CC2)C1 [Navitoclax] (partner 0.5 µM)", 0.916],
  ["CC(C)Oc1cc(Nc2nc(N[C@@H](C)c3ccc(F)cn3)ncc2Cl)n[nH]1 [AZ23] + CC(=O)Nc1cccc(-n2c(=O)n(C3CC3)c(=O)c3c(Nc4ccc(I)cc4F)n(C)c(=O)c(C)c32)c1 [Trametinib] (partner 0.02 µM)", 0.449],
  ["CC(C)Oc1cc(Nc2nc(N[C@@H](C)c3ccc(F)cn3)ncc2Cl)n[nH]1 [AZ23] + CS(=O)(=O)N1CCN(Cc2cc3nc(-c4cccc5[nH]ncc45)nc(N4CCOCC4)c3s2)CC1 [Pictilisib] (partner 1 µM)", 0.869],
  ["CC(C)Oc1cc(Nc2nc(N[C@@H](C)c3ccc(F)cn3)ncc2Cl)n[nH]1 [AZ23] + Cc1nc(Nc2ncc(C(=O)Nc3c(C)cccc3Cl)s2)cc(N2CCN(CCO)CC2)n1 [Dasatinib] (partner 0.075 µM)", 0.522],
  ["CC(C)Oc1cc(Nc2nc(N[C@@H](C)c3ccc(F)cn3)ncc2Cl)n[nH]1 [AZ23] + CCNC(=O)c1noc(-c2cc(C(C)C)c(O)cc2O)c1-c1ccc(CN2CCOCC2)cc1 [Luminespib] (partner 0.01 µM)", 0.854],
  ["CC(C)Oc1cc(Nc2nc(N[C@@H](C)c3ccc(F)cn3)ncc2Cl)n[nH]1 [AZ23] + Nc1nc2[nH]cc(CCc3ccc(C(=O)N[C@@H](CCC(=O)O)C(=O)O)cc3)c2c(=O)[nH]1 [Pemetrexed] (partner 0.2 µM)", 0.563],
  ["CC(C)Oc1cc(Nc2nc(N[C@@H](C)c3ccc(F)cn3)ncc2Cl)n[nH]1 [AZ23] + O=C(c1cc(Cc2n[nH]c(=O)c3ccccc23)ccc1F)N1CCN(C(=O)C2CC2)CC1 [Olaparib] (partner 8 µM)", 1.01]
]}
